The entries below come with measured GI50 values attached.
Tested on: SW-620
assayProcedure: NCI tumour cell line growth inhibition, 48 h
Calls of active or inactive are those of the source. Rule as the data show it: active = GI50 up to about 1.1 µM and inactive = higher.
reportedMetric: GI50

* Cc1ccc(NC(Nc2ccc(C)cc2C)=C(C(Cl)=C(Cl)Cl)[N+](=O)[O-])c(C)c1 | 16.8 µM (inactive)
* O=C1C2CCC(C2)C12CC1(c3ccccc3)C(=O)c3ccccc3N1O2 (stereo unspecified) | > 100 µM (inactive)
* CC/C=C/c1cc2cc[nH]c2c2c1C(C)C[C@@H]2C (stereo partly specified) | 31.9 µM (inactive)
* CC(/C=N\NC(=S)N(C)C)=N/NC(=S)N(C)C | 0.0832 µM (active)
* COc1cc(C(c2cc3c(cc2O)OCO3)N2CCCCC2)cc(OC)c1OC (stereo unspecified) | 4.57 µM (inactive)
* Clc1ccc(SCCCCCCCCCCSc2ccc(Cl)cc2)cc1 | 37.5 µM (inactive)
* CCN(CC)CCn1nc(N)c2nc3cc(Cl)ccc3nc21 | 63 µM (inactive)
* Cc1cc2ccccc2oc(=O)/c1=N\Nc1ccccc1 | 23 µM (inactive)
* COC(=O)CC1C(=O)OCc2c1cc1n(c2=O)Cc2c-1nc1ccccc1c2OC (stereo unspecified) | > 100 µM (inactive)
* CCOC(=O)C1=C(C)N2CCCOC2(C)C(C(=O)OC)C1c1cccc([N+](=O)[O-])c1 (stereo unspecified) | > 100 µM (inactive)
* COc1ccc(C(O)/C(=C/n2ccnc2)c2ccccc2)cc1OC (stereo unspecified) | > 100 µM (inactive)

* * *

The entries below come with measured GI50 values attached.
Tested on: NCI-H226
assayProcedure: NCI tumour cell line growth inhibition, 48 h
Activity calls are given as the source filed them. No stated cut-off is given here; in the data, active = GI50 up to about 1.1 µM and inactive = higher.
reportedMetric: GI50

- NCCCc1ccc2oc3ccccc3c2c1: 19.1 µM (inactive)
- Cc1ccc(C2COc3cc(O)c(O)cc3C2)cc1 (stereo unspecified): 45.2 µM (inactive)
- Clc1ccc(C2=Nc3ccccc3SC(c3ccc(Cl)c(Cl)c3)C2)c(Cl)c1 (stereo unspecified): 19 µM (inactive)
- O=c1c(O)c(-c2cc(O)c(O)c(O)c2)oc2cc(O)cc(O)c12 [MYRICETIN]: 25.6 µM (inactive)
- O=C1c2cccc3cc([N+](=O)[O-])cc(c23)C(=O)N1c1ccc(OCCN2CCCC2)cc1: 9.35 µM (inactive)
- CCCCOC(=O)C1CN2C(=NC1(C(F)(F)F)C(F)(F)F)Sc1ccccc12 (stereo unspecified): 27 µM (inactive)

* * *

Test system: MDA-N
assayProcedure: NCI tumour cell line growth inhibition, 48 h
Active and inactive are the calls of the source. No stated cut-off is given here; in the data, active = GI50 up to about 1.1 µM and inactive = higher.
reportedMetric: GI50

• CCOc1ncn(-c2ccc(NC(=S)NC34CC5CC(CC(C5)C3)C4)cc2)n1 = > 100 µM (inactive)
• COc1ncnc2c1cnn2Cc1cn(CCCCO)nn1 = > 100 µM (inactive)
• O=c1c(O)c(-c2cc(O)c(O)c(O)c2)oc2cc(O)cc(O)c12 = 10 µM (inactive)
• CC(C)(Sc1cc(C(C)(C)C)c(O)c(C(C)(C)C)c1)Sc1cc(C(C)(C)C)c(O)c(C(C)(C)C)c1 = > 100 µM (inactive)
• NCCCN(CCCCN(CCCN)Cc1ccccc1)Cc1ccccc1 = 18.4 µM (inactive)

* * *

System: SNB-78
assayProcedure: NCI tumour cell line growth inhibition, 48 h
Calls of active or inactive are those of the source. Cut-off read from the data, not from the text of the source: active = GI50 up to about 1.1 µM and inactive = higher.
reportedMetric: GI50

- Cc1ccc(NC(=O)OCC(COc2ccc(Cl)cc2Cl)OC(=O)Nc2ccc(C)cc2)cc1 (stereo unspecified): > 100 µM (inactive)
- CCCCCCCCCCCCCCCCSCC(COC)COP(=O)([O-])OCC[N+](C)(C)C (stereo unspecified) [ILMOFOSINE]: 10.2 µM (inactive)
- CCC1(O)C(=O)OCc2c1cc1n(c2=O)Cc2c-1nc1ccccc1c2OC (stereo unspecified): 2.13 µM (inactive)
- CC(=O)NNc1nc(C)c(C(=O)NNC(=O)C(=O)Nc2c(C)cccc2C)s1: 36.1 µM (inactive)
- O=C(c1cccc2ccccc12)N1CCC(C2CCN(C(=O)c3cccc4ccccc34)CC2)CC1: 70.1 µM (inactive)
- Nc1n/c(=N\c2ccccc2)ss1: > 100 µM (inactive)

* * *

Tested on: UO-31
assayProcedure: NCI tumour cell line growth inhibition, 48 h
The source made the active and inactive calls. Cut-off read from the data, not from the text of the source: active = GI50 up to about 1.1 µM and inactive = higher. Non-standard residues stand in square brackets, D forms with d. Residues, ends and D or L forms follow the SMILES beside them. ξ: configuration not given here. ξLac(3-iPr) = CC(C)CC(O)C(=O)O; NMeV = CN[CH](C(=O)O)C(C)C; NMeA = CN[CH](C)C(=O)O; βAla = NCCC(=O)O
Outcomes: YES for active, NO for inactive

- CC(=O)N1CCN(C=S)CC1: NO
- CCOC(=O)Nn1cnnc1Cc1ccccc1: NO
- COc1ccc(CC2OC3(CCCCC3)CC3CCCCN32)cc1 (configuration not stated): NO
- Clc1ccc(C2=Nc3ccccc3SC(c3ccc(Cl)c(Cl)c3)C2)c(Cl)c1 (configuration not stated): NO
- CNC(=O)O/N=C1\N(C)CN(c2ccccc2)C12CCN(CCCC(=O)c1ccc(F)cc1)CC2: NO
- COC1O[C@@H]2COC(C)(C)O[C@@H]2C(=O)N1Nc1ccc([N+](=O)[O-])cc1 (some centres not stated): NO
- CN(C)CCCN1CCc2c([nH]c3ccccc23)C1c1cccnc1 (configuration not stated): NO
- O=C1NC2C3CC(OCc4ccccc4)(OCc4ccccc4)C2OC3O1 (configuration not stated): NO
- CCCCCC(=O)C(C)C1=Nc2nnc(CCCCCCCc3nnc4n3C(=O)C(C(C)C(=O)CCCCC)=N4)n2C1=O (configuration not stated): NO
- Cc1ccc(C)c(N2C(=O)C(=O)c3c(C)ccc(C)c32)c1: NO
- CN(C)c1ccc(/C=c2/c3ccccc3n3c2cc(/C=C/c2ccccc2)[n+]3C)cc1: YES
- Cc1cc(OCC(=O)O)c(Cl)cc1Cl: NO
- C[C@]12CC[C@@H]3c4ccc(O)cc4CC[C@H]3[C@@H]1CC[C@@H]2OC(=O)CCC1CCCC1 [ESTRADIOL CYPIONATE]: NO
- COc1ccc(/C=C2\N=C(SC)NC2=O)cc1: NO
- CCOC(=O)c1cc(-n2nnc3ccccc32)cn1C: NO
- CCC(C)C1NC(=O)C2CCCN2C(=O)C(CC(C)C)OC(=O)CCNC(=O)C(C)N(C)C(=O)C(C(C)C)N(C)C1=O (configuration not stated) (cyclo([ξLac(3-iPr)]PI[NMeV][NMeA][βAla]); configuration not given here): NO
- CCOC(=O)c1c(OCC)[nH]c(=O)c(C(c2ccc(F)cc2)c2c(O)c(C(=O)OCC)c(OCC)[nH]c2=O)c1O: NO

* * *

Test system: SW-620
assayProcedure: NCI tumour cell line growth inhibition, 48 h
Activity calls are given as the source filed them. Rule as the data show it: active = GI50 up to about 1.1 µM and inactive = higher.
Outcomes: active, inactive

- O=C1CCCC2=C1CC1=C(CCCC1=O)N2c1ccccc1C(=O)O: inactive
- CC(=O)C(C(=O)c1ccc(C)cc1)[C@@H]1OC(C)(C)O[C@@H]1[C@H]1COC(C)(C)O1 (stereo partly drawn): inactive
- O=S(=O)(/C=C/C=C/[S+]([O-])c1ccccc1)c1ccccc1 (stereo not drawn): inactive
- Cc1cccc2c(=O)c3cccc(CC(=O)O)c3oc12: inactive
- N=c1oc2c(Br)cc(Br)cc2cc1C(=O)Nc1ccccn1: inactive
- C=C1C(=O)OC2/C=C(\CO)CC/C=C(\CO)CC(OC(=O)C(C)C)C12 (stereo not drawn): inactive
- CCCCc1c2c(c(C)c3c1C(=O)OC3)Oc1ccccc1O2: active
- Clc1nc(Cl)nc(NC23CC4CC(CC(C4)C2)C3)n1: inactive
- Cc1c2c(cc[n+]1C)O[B-](c1ccccc1)(c1ccccc1)O2: inactive
- COc1cccc(/N=N/C(=N\NC(=O)c2ccc(C)cc2)c2ccc(N(CCC#N)CCC#N)cc2C)c1: inactive
- Cc1cc(O)c(-c2cc(O)c(C)cc2O)cc1O: inactive
- CCCCCCCCCCCCCCCCCCNc1ccn(C2OC(COP(=O)(O)OC3CC(n4cc(F)c(=O)[nH]c4=O)OC3COP(=O)(O)OCC3OC(n4ccc(N)nc4=O)C(O)C3O)C(O)C2O)c(=O)n1 (stereo not drawn): inactive
- Cc1cc([N+](=O)[O-])c(C)c(Br)c1C: inactive

* * *

System: A549
assayProcedure: NCI tumour cell line growth inhibition, 48 h
Active and inactive are the calls of the source. Cut-off read from the data, not from the text of the source: active = GI50 up to about 1.1 µM and inactive = higher.
reportedMetric: GI50

• CC(C)=C/C(CC(O)(C(F)(F)F)C(F)(F)F)=N\O = > 100 µM (inactive)
• N=C(N)NNC(=O)C(=O)O = > 100 µM (inactive)
• CN(C)c1ccc(/C=c2/c3ccccc3n3c2cc(/C=C/c2ccccc2)[n+]3C)cc1 = 0.0512 µM (active)
• O=C1Nc2cccc(Cl)c2/C1=C\c1c(Cl)nc2sccn12 = > 100 µM (inactive)

Origin of values: ChEMBL document CHEMBL1201862
